target: α2(T162P)β2γ2 GABAA receptor (Homo sapiens, UniProt P18507+P47869+P47870, T190P); test: Midazolam potentiation of EC10 GABA currents, whole-cell patch clamp, HEK293T
Sequence (P47869 29-451 T190P, one chain of several): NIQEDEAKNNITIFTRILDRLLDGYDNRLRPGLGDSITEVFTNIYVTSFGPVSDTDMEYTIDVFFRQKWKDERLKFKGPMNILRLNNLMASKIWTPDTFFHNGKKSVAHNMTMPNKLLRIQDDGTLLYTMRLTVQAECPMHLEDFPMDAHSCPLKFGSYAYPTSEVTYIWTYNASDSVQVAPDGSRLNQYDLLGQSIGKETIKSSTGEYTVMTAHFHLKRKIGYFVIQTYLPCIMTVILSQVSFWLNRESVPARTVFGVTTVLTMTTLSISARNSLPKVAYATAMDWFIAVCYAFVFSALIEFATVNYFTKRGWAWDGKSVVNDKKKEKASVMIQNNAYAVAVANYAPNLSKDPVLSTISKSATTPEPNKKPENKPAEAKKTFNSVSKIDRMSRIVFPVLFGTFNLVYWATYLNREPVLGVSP
property-measured: pEC50
The meaning of pEC50 here: minus log10 of the concentration in molar units.

Q) Please supply the value of reported pEC50 for the item Cc1ncc2n1-c1ccc(Cl)cc1C(c1ccccc1F)=NC2
A) 7.38

----------
molecular target: α1(T163P)β2γ2 GABAA receptor (Homo sapiens, UniProt P14867+P18507+P47870, T190P); assay: Midazolam potentiation of EC10 GABA currents, whole-cell patch clamp, HEK293T
Sequence (P14867 28-456 T190P): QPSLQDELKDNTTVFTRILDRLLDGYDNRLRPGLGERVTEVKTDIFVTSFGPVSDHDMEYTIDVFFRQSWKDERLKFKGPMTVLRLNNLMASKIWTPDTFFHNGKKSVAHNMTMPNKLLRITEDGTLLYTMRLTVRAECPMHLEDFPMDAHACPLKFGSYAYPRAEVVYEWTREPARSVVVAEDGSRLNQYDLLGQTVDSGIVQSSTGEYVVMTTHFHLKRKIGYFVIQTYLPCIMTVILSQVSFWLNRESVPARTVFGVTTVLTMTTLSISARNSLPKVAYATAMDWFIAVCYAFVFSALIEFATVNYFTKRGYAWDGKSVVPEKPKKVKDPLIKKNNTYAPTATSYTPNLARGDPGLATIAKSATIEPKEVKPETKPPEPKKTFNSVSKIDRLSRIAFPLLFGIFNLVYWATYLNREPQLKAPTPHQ
Sequence (P47870 25-512 limits assumed): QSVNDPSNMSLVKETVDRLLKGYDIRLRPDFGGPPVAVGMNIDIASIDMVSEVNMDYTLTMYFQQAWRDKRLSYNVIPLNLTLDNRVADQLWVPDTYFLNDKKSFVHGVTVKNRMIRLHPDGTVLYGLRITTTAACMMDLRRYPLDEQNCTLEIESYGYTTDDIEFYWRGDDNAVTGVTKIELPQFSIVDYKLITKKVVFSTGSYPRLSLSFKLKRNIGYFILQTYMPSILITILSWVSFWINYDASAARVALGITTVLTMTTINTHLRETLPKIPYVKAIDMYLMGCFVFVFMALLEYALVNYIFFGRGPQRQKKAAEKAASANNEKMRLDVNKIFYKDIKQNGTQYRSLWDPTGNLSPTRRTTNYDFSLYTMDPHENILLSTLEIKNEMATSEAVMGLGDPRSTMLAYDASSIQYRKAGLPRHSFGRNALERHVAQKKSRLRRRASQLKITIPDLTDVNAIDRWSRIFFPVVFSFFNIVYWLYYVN
Sequence (P18507 40-467 isoform P18507-1 limits assumed, stated change not applied): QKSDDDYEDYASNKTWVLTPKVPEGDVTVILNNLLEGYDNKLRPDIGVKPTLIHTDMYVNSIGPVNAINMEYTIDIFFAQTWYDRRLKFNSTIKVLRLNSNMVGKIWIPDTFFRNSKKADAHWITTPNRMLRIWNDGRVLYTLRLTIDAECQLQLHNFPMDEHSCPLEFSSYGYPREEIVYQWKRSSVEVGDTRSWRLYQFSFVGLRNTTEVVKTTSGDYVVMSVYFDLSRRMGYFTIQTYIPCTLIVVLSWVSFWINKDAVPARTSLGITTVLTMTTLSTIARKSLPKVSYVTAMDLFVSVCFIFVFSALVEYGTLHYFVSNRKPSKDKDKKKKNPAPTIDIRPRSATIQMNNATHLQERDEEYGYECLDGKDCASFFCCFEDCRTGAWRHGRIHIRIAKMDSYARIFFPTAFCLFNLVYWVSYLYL
property-measured: pEC50
The meaning of pEC50 here: minus log10 of the concentration in molar units.

Q) For α1(T163P)β2γ2 GABAA receptor (Homo sapiens, UniProt P14867+P18507+P47870, T190P), give pEC50 of the listed molecule: Cc1ncc2n1-c1ccc(Cl)cc1C(c1ccccc1F)=NC2 [midazolam]
A) 7.21
